Test system: RIOK3;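 also: KINOMEscan kinase panel screen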
Settings: concentration: 1 μM, replicates: in singlicate; n = 1
Each record here notes measured %Inh.
The reply should contain only the number, in %.

{"compound": "Cc1cccc(Nc2nc(NCCN)ncc2C(N)=O)c1 [GSK1292139]", "subjectOfTest": "RIOK3", "%Inh, %": 90.2}
{"compound": "COc1cccc(-c2nc(-c3ccccc3)[nH]c2-c2ccncc2)c1 [SB-610250]", "subjectOfTest": "RIOK3", "%Inh, %": 0}
{"compound": "CSc1ccc(NC2=C(c3ccc(Cl)cc3)C(=O)NC2=O)cc1 [SB-317658]", "subjectOfTest": "RIOK3", "%Inh, %": 20}
{"compound": "N#CC1(c2cccc(C(=O)Nc3cccc(Oc4ccc5nc(NC(=O)C6CC6)sc5n4)c3)c2)CC1", "subjectOfTest": "RIOK3", "%Inh, %": 0}
{"compound": "Cn1cc(-c2ccc3c(c2)CCN3C(=O)Cc2cc(F)cc(F)c2F)c2c(N)ncnc21 [GSK2634140]", "subjectOfTest": "RIOK3", "%Inh, %": 13}

Query: %Inh; subject: CNc1nccc(-c2ccc3c(N)n[nH]c3c2)n1 [GSK2206003]
82

Then COc1cccc(CC(=O)N2CCc3cc(-c4cn(C)c5ncnc(N)c45)ccc32)c1 [GSK2608899] ?
17
